Assignment: determine reported Kd for the given binders.
- Test system: T1, RAP2A, mGppNHp-bound (human, UniProt P10114 1-183)
- T1 construct: human RAP2A; Loaded with mGppNHp
- T1 sequence (looked up): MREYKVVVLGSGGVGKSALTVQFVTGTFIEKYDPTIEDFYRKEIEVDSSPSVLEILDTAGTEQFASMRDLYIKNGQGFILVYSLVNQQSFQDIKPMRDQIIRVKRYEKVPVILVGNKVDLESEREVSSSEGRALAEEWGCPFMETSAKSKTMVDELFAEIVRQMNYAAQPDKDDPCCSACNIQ
- Measurement protocol: fluorescence polarisation; increasing concentrations of the RA/RB domain as MBP fusion protein (0.002-300 µM; or MBP alone) titrated to mGppNHp-bound RAS protein (1 µM); 30 mM Tris-HCl pH 7.4, 100 mM NaCl, 5 mM MgCl2, 3 mM DTT; Kd from a quadratic ligand-binding equation
- Settings: both partners purified
Numbers only, in µM.

| Binder | Endpoint value |
| --- | --- |
| RASSF3 RA domain, MBP fusion protein (domain or fragment, human, UniProt Q86WH2 79-187, looked up, RASSF3 RA domain, aa 79-187 of Q86WH2) YTGFIKVQMELCKPPQTSPNSGKLSPSSNGCMNTLHISSTNTVGEVIEALLKKFLVTESPAKFALYKRCHREDQVYACKLSDREHPLYLRLVAGPRTDTLSFVLREHEI | 100 |
| RASSF8 RA domain, MBP fusion protein (domain or fragment, human, UniProt Q8NHQ8 1-82, looked up, RASSF8 RA domain, aa 1-82 of Q8NHQ8) MELKVWVDGVQRIVCGVTEVTTCQEVVIALAQAIGRTGRYTLIEKWRDTERHLAPHENPIISLNKWGQYASDVQLILRRTGP | 67 |

Parameters: items (list). Returns: Kd for each item.
1. RASSF1 RA domain, MBP fusion protein (domain or fragment, human, UniProt Q9NS23 194-288, looked up, RASSF1 RA domain, aa 194-288 of Q9NS23) RGPGRGTSVRRRTSFYLPKDAVKHLHVLSRTRAREVIEALLRKFLVVDDPRKFALFERAERHGQVYLRKLLDDEQPLRLRLLAGPSDKALSFVLK
2. RASSF9 RA domain, MBP fusion protein (domain or fragment, human, UniProt O75901 25-119, looked up, RASSF9 RA domain, aa 25-119 of O75901) EEKEIVVWVCQEEKLVCGLTKRTTSADVIQALLEEHEATFGEKRFLLGKPSDYCIIEKWRGSERVLPPLTRILKLWKAWGDEQPNMQFVLVKADA

1. 22
2. 66
